tested on: Brain; test: Antioxidant activity in Wistar rat brain homogenate assessed as inhibition of […] lipid peroxidation by measuring reduction in TBARS level preincubated for 30 mins followed by […] and measured after 1 hr; type: functional, tissue-based; settings: Rattus norvegicus, Wistar, Brain; read-out: IC50
observation_type: IC50 (µM)

>>> value_observed("COC(=O)[C@]12CCC[C@](C)(C=O)[C@@H]1CCc1cc(C(C)C)c(OC)c(O)c12")
19.2

[A] COc1c(C(C)C)cc2c(c1O)C[C@]13CCC[C@](C)(C(=O)O1)[C@@H]3CC2
[B] Cc1cc(C(C)(C)C)c(O)c(C(C)(C)C)c1 [BUTYLATED HYDROXYTOLUENE]
[C] CC(C)c1cc2c(c(O)c1O)[C@]13CCC[C@](C)([C@H](O)OC1=O)[C@@H]3CC2
[D] CC(C)c1cc2c(c(O)c1O)[C@]13CCC[C@](C)(COC1=O)[C@@H]3CC2
Query block: Arrange the 4 molecules from largest to smallest IC50. # output: labels, in the requested order
Result block: A, C, D, B

Data origin: ChEMBL document CHEMBL4316658
